The values you see were collected from patent US7211572B2.

// pIC50 lookup, one value per entry
target: HIV integrase (Human immunodeficiency virus type 1 group M subtype B, UniProt P12497, F1332H); construct: HIV integrase full length gene; experiment: Determination of enzyme (HIV integrase) inhibitory activity; conditions: recombinant HIV integrase (F185H), strand transfer ELISA, absorbance at 450 nm
pIC50: −log10 of the molar value. Counter-ions that a name gives are not always drawn.

Some entries whose results are on file:
| COMPOUND | pIC50 |
| --- | --- |
| CCC(C)(C)C(=O)c1cn2ccn(Cc3ccc(F)cc3)c(=O)c2c(O)c1=O [Example 382, hydrochloride] | 7.00 to 8.00 |
| O=C1c2c(O)c(=O)cc(CO)n2CCN1Cc1ccc(Cl)c(Cl)c1 | 7.00 to 8.00 |
| CNC(=O)c1cn2ccn(Cc3ccc(F)cc3)c(=O)c2c(O)c1=O | > 8.00 |
| O=c1ccn2ccn(CCCc3c(Cl)cccc3Cl)c(=O)c2c1O | > 8.00 |
| O=c1c(-c2ccncn2)cn2ccn(Cc3ccc(Cl)cc3)c(=O)c2c1O [Example 399, hydrochloride] | > 8.00 |

Summary for this compound, CC(C)Oc1cc(Cl)cc(CN2CCn3cc(-c4nccs4)c(=O)c(O)c3C2=O)c1 [Example 397, hydrochloride] : pIC50 is 7.00 to 8.00

Summary for this compound, O=c1c(-c2ccncc2)cn2ccn(Cc3cccc(Cl)c3)c(=O)c2c1O [Example 116, hydrochloride] : pIC50 is > 8.00

Summary for this compound, O=C1c2c(O)c(=O)c(-c3ccccn3)cn2CCN1Cc1ccc(F)c(Cl)c1 [Example 327, hydrochloride] : pIC50 is > 8.00

Summary for this compound, CCCCN(C)C(=O)c1cn2ccn(Cc3cccc(Cl)c3)c(=O)c2c(O)c1=O : pIC50 is 7.00 to 8.00

Summary for this compound, CCN(CC)C(=O)c1cn2ccn(Cc3cccc(Cl)c3)c(=O)c2c(O)c1=O : pIC50 is 7.00 to 8.00

Summary for this compound, CN(Cc1ccccc1)C(=O)c1cn2ccn(Cc3cccc(Cl)c3)c(=O)c2c(O)c1=O : pIC50 is > 8.00

---

biological target: HIV integrase (Human immunodeficiency virus type 1 group M subtype B, UniProt P12497, F1332H); construct: HIV integrase full length gene; assay: Determination of enzyme (HIV integrase) inhibitory activity; conditions: recombinant HIV integrase (F185H), strand transfer ELISA, absorbance at 450 nm
// IC50 lookup, one value per entry

| COMPOUND | IC50 |
| --- | --- |
| O=C(NCc1cccc2ccccc12)c1cn2c(c(O)c1=O)C(=O)N(Cc1cccc(Cl)c1)CC2 [Example 269] | < 10 nM |

Summary for this compound, O=C1c2c(O)c(=O)ccn2CCN1Cc1ccccc1 [Example 44] : IC50 is 100 to 1000 nM

Summary for this compound, O=C(Nc1cn2ccn(Cc3ccc(F)cc3)c(=O)c2c(O)c1=O)c1ccccc1 [Example 304] : IC50 is < 10 nM

---

target: HIV integrase (Human immunodeficiency virus type 1 group M subtype B, UniProt P12497, F1332H); construct: HIV integrase full length gene; test: Determination of enzyme (HIV integrase) inhibitory activity; details: recombinant HIV integrase (F185H), strand transfer ELISA, absorbance at 450 nm
// IC50 lookup, one value per entry

Summary for this compound, CC(C)S(=O)(=O)Nc1cn2ccn(Cc3ccc(F)cc3)c(=O)c2c(O)c1=O : IC50 is 0.01 to 0.1 µM

Summary for this compound, CC(C)(C(=O)c1cn2c(c(O)c1=O)C(=O)N(Cc1cccc(Cl)c1)CC2)c1ccccc1 : IC50 is 0.01 to 0.1 µM

Summary for this compound, CN(C)C(=O)c1cn2c(c(O)c1=O)C(=O)N(Cc1cccc(Cl)c1)CC2 : IC50 is 0.01 to 0.1 µM

Summary for this compound, O=C(NCc1ccccc1)c1cn2ccn(Cc3cccc(Cl)c3)c(=O)c2c(O)c1=O : IC50 is < 0.01 µM

Summary for this compound, O=C1c2c(O)c(=O)c(-c3nccs3)cn2CCN1Cc1cccc(Cl)c1 : IC50 is < 0.01 µM

---

// IC50 lookup, one value per entry
target: HIV integrase (Human immunodeficiency virus type 1 group M subtype B, UniProt P12497, F1332H); construct: HIV integrase full length gene; assay: Determination of enzyme (HIV integrase) inhibitory activity; settings: recombinant HIV integrase (F185H), strand transfer ELISA, absorbance at 450 nm
Structures can show the parent of a compound that is named as a salt.

| COMPOUND | IC50 |
| --- | --- |
| O=c1c(-c2ccncn2)cn2ccn(Cc3cccc(F)c3)c(=O)c2c1O [Example 403, hydrochloride] | 0.01 to 0.1 µM |
| O=c1c(-c2ccncn2)cn2ccn(Cc3ccc(F)c(Cl)c3)c(=O)c2c1O [Example 395, hydrochloride] | < 0.01 µM |

Summary for this compound, O=c1c(-c2ccccn2)cn2ccn(Cc3cccc(Cl)c3)c(=O)c2c1O [Example 117, hydrochloride] : IC50 is < 0.01 µM

Summary for this compound, CC(O)CNC(=O)c1cn2ccn(Cc3cccc(Cl)c3)c(=O)c2c(O)c1=O (stereo not shown) [Example 192, hydrochloride] : IC50 is 0.01 to 0.1 µM

Summary for this compound, CC(C)C(=O)c1cn2c(c(O)c1=O)C(=O)N(Cc1cccc(Cl)c1)CC2 : IC50 is < 0.01 µM

Summary for this compound, O=C1c2c(O)c(=O)c(-c3nccs3)cn2CCN1Cc1cc2ccccc2o1 : IC50 is < 0.01 µM

Summary for this compound, Cc1cnc(-c2cn3c(c(O)c2=O)C(=O)N(Cc2cccc(Cl)c2)CC3)s1 : IC50 is < 0.01 µM

---

molecular target: HIV integrase (Human immunodeficiency virus type 1 group M subtype B, UniProt P12497, F1332H); construct: HIV integrase full length gene; assay: Determination of enzyme (HIV integrase) inhibitory activity; conditions: recombinant HIV integrase (F185H), strand transfer ELISA, absorbance at 450 nm
pIC50: −log10 of the molar value. Where a name gives a salt, the structure may show the parent alone.
// pIC50 lookup, one value per entry

Summary for this compound, O=C(Nc1cn2ccn(Cc3cccc(Cl)c3)c(=O)c2c(O)c1=O)c1ccncc1 [Example 287, trifluoroacetate] : pIC50 is > 8.00

Summary for this compound, Cc1cn(Cc2ccc(Cl)c(Cl)c2)c(=O)c2c(O)c(=O)ccn12 [Example 72, hydrochloride] : pIC50 is > 8.00

Summary for this compound, O=C1c2c(O)c(=O)ccn2CCN1Cc1ccccc1Cl : pIC50 is 6.00 to 7.00

Summary for this compound, O=C1c2c(O)c(=O)c(NS(=O)(=O)Cc3ccccc3)cn2CCN1Cc1ccc(F)c(Cl)c1 : pIC50 is > 8.00

Summary for this compound, COc1ccc(CN2CCn3ccc(=O)c(O)c3C2=O)cc1Cl : pIC50 is 7.00 to 8.00

Summary for this compound, O=c1c(-c2ccccc2Cl)cn2ccn(Cc3cccc(Cl)c3)c(=O)c2c1O [Example 114, hydrochloride] : pIC50 is > 8.00

Summary for this compound, Cn1cc2c(c(O)c1=O)C(=O)N(Cc1ccc(Cl)c(Cl)c1)CC2 : pIC50 is > 8.00

Summary for this compound, COc1cccc(-c2cn3ccn(Cc4cccc(Cl)c4)c(=O)c3c(O)c2=O)c1 [Example 128, hydrochloride] : pIC50 is 7.00 to 8.00

---

// IC50 lookup, one value per entry
biological target: HIV integrase (Human immunodeficiency virus type 1 group M subtype B, UniProt P12497, F1332H); construct: HIV integrase full length gene; assay: Determination of enzyme (HIV integrase) inhibitory activity; details: recombinant HIV integrase (F185H), strand transfer ELISA, absorbance at 450 nm
Counter-ions that a name gives are not always drawn.

Some entries whose results are on file:
| COMPOUND | MEASURED METRIC | ENDPOINT RESULT |
| --- | --- | --- |
| Cc1csc(-c2cn3c(c(O)c2=O)C(=O)N(Cc2cccc(Cl)c2)CC3)n1 | IC50 | < 10 nM |
| O=c1ccn2ccn(Cc3ccc(Cl)cc3)c(=O)c2c1O [Example 151, hydrochloride] | IC50 | 10 to 100 nM |
| O=c1c(O)c2c(=O)n(Cc3cccc(Cl)c3)ccn2c2ccccc12 [Example 99, hydrochloride] | IC50 | 10 to 100 nM |
| CC(C)Cc1cn(Cc2ccc(Cl)c(Cl)c2)c(=O)c2c(O)c(=O)ccn12 | IC50 | < 10 nM |
| CC(C)(C)C(=O)c1cn2ccn(CCCc3c(F)cccc3Cl)c(=O)c2c(O)c1=O [Example 254, hydrochloride] | IC50 | < 10 nM |
| CNC(=O)c1cc(F)ccc1CCCN1CCn2cc(-c3nccs3)c(=O)c(O)c2C1=O | IC50 | 10 to 100 nM |

Summary for this compound, CC(C)(C)C(=O)Nc1cn2ccn(Cc3cccc(Cl)c3)c(=O)c2c(O)c1=O : IC50 is < 10 nM

Summary for this compound, CCC(=O)Nc1cn2ccn(Cc3cccc(Cl)c3)c(=O)c2c(O)c1=O : IC50 is < 10 nM
